Assay: qHTS Assay for NPC1 Promoter Activators; further: nearly all actives have a fitted effect of over 60% in size
Conditions: Huh7 NPC1 promoter luciferase reporter, 24 h; series mostly up to 9.22 µM
Screen size: about 320,000 compounds; about 7,600 (2.4%) were called active. Another 3% or so got no clear call; they are omitted. The call rests on the fitted dose curve; in most records, active means well fitted activation curve with a large enough effect; inconclusive means small, poorly fitted or top-dose-only effect; inactive means no such curve, though single readings can be large or run the other way. For the sample, actives were picked, then their nearest neighbours and some compounds at random.
Your reply should match one of these outcome classes. T for active, F for inactive

INSERT INTO results (smiles_code, discrete_label) VALUES
  ('COc1ccccc1-c1cc(C(=O)NCCCn2ccnc2)no1', 'F');

What did the test return for `COc1ccc(CNC(=O)c2ccc(NS(=O)(=O)c3ccc4[nH]c(=O)[nH]c4c3)cc2)cc1OC` ?
F

What did the test return for `Cn1c(N)c(C(=O)COC(=O)/C=C/c2cccc(C(F)(F)F)c2)c(=O)n(C)c1=O` ?
F

What did the test return for `Cn1nc(-c2ccccc2)c2cc([N+](=O)[O-])ccc21` ?
F

What did the test return for `CC(=O)c1ccc(NC(=O)c2cc(-c3cccs3)on2)cc1` ?
F

What did the test return for `Cc1ccc(Nc2ncnc3c2cnn3C)c(C)c1` ?
F

What did the test return for `Cc1cc(CO)nn1-c1ccc([N+](=O)[O-])cc1` ?
F

What did the test return for `COCCN1CCN(C(=O)c2cc(COc3ccc(F)cc3Cl)on2)CC1` ?
F

###

Assay: qHTS Assay for NPC1 Promoter Activators; further: nearly all actives have a fitted effect of over 60% in size
Conditions: Huh7 NPC1 promoter luciferase reporter, 24 h; series mostly up to 9.22 µM
The whole screen tested about 320,000 compounds, of which about 7,600 (2.4%) were called active. Another 3% or so got no clear call; they are omitted. Calls come from the whole dose curve; as a rule, active = well fitted activation curve with a large enough effect; inconclusive = small, poorly fitted or top-dose-only effect; inactive = no such curve, though single readings can be large or run the other way. The sample as a whole holds a higher share of actives than the screen did.
Your reply should match one of these outcome classes. 1 (active), -1 (inactive)

Recorded results for 3 compounds are shown here.
INSERT INTO measurements (compound, discrete_label) VALUES
  ('CN(CC(=O)Nc1ccc(F)cc1)CC(=O)N1CCCCC1', -1),
  ('COC(=O)CSc1nc2ccccc2c(=O)n1Cc1ccccc1', -1),
  ('Cc1cc(N2CCOCC2)nc(-c2ccc(Br)cc2)n1', -1);

What did the test return for `Cc1ccc(Nc2nc(-c3ccc(O)cc3O)cs2)nc1` ?
1

What did the test return for `CSc1nnc2ccc(-c3ccc(C)cc3)nn12` ?
-1

What did the test return for `Cc1nc(-c2ccc([N+](=O)[O-])cc2)c(-c2ccccc2)o1` ?
-1

What did the test return for `COc1cc(/C=N/NC(=O)c2ccc(N3CCCC3=O)cc2)ccc1O` ?
1

What did the test return for `Cc1ccc(C(=O)CSc2nc3ccccc3c(=O)n2N)o1` ?
1

What did the test return for COc1ccccc1Nc1nnc(SC(C)C(=O)NC2CC2)s1 (configuration not stated) ?
-1

###

Assay: qHTS Assay for NPC1 Promoter Activators; further: nearly all actives have a fitted effect of over 60% in size;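 on activation: reporter is driven by a mutant NPC1 promoter; % of control where 0% means no effect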
Settings: Huh7 NPC1 promoter luciferase reporter, 24 h; series mostly up to 9.22 µM
Description: NIH Chemical Genomics Center [NCGC] NIH Molecular Libraries Probe Production centers Network [MLPCN] […] The NPC1 promoter is cloned in front of the luciferase reporter gene, therefore NPC promoter activation results in luciferase expression. […] 7.#Read using the luminescence protocol on the ViewLux plate reader (Perkin Elmer).
About 7,600 (2.4%) of roughly 320,000 compounds were called active. Roughly 3% stayed inconclusive and do not appear here. Calls come from the whole dose curve; as a rule, active = well fitted activation curve with a large enough effect; inconclusive = small, poorly fitted or top-dose-only effect; inactive = no such curve, though single readings can be large or run the other way. For the sample, actives were picked, then their nearest neighbours and some compounds at random.
Your reply should match one of these outcome classes. active, inactive

INSERT INTO measurements (molecule, discrete_label) VALUES
  ('Cc1ccc(NC(=O)COC(=O)CN2CCCCCC2=O)c(C)c1', 'inactive');

Now take the following molecule into account.
What did the test return for `CCc1noc(C)c1C(=O)N1CCN(S(=O)(=O)c2cccc(C(F)(F)F)c2)CC1` ?
inactive

###

Test: qHTS Assay for NPC1 Promoter Activators; further: nearly all actives have a fitted effect of over 60% in size;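 on activation: reporter is driven by a mutant NPC1 promoter; % of control where 0% means no effect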
Details: Huh7 NPC1 promoter luciferase reporter, 24 h; series mostly up to 9.22 µM
Among all 320,000 compounds or so, about 7,600 (2.4%) were called active. Another 3% or so got no clear call; they are omitted. Calls follow the shape of the dose curve; as a rule, active = well fitted activation curve with a large enough effect; inconclusive = small, poorly fitted or top-dose-only effect; inactive = no such curve, though single readings can be large or run the other way. Shown is part of a subset that was picked to be rich in actives.
Your reply should match one of these outcome classes. active, inactive

Recorded results for 5 compounds are shown here.
INSERT INTO results (compound, discrete_label) VALUES
  ('CC1CN(C(=S)SCC(=O)c2ccccc2)CC(C)O1 (stereo unspecified)', 'inactive'),
  ('Cn1c(=NC(=O)c2cnccn2)sc2ccccc21', 'active'),
  ('O=C(NCCCNC(=O)c1ccccc1Cl)c1cnccn1', 'inactive'),
  ('CCOc1ccc(NC(=O)CN(C)C(=O)Cc2sc(C)nc2-c2ccc(F)cc2)cc1OCC', 'inactive'),
  ('O=C(CSC(=S)N1CCOCC1)c1ccccc1', 'active');

What did the test return for `COC(=O)c1ccc(OC(=O)c2cnccn2)cc1` ?
inactive

###

Assay: qHTS Assay for NPC1 Promoter Activators; further: nearly all actives have a fitted effect of over 60% in size;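 on activation: reporter is driven by a mutant NPC1 promoter; % of control where 0% means no effect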
Conditions: Huh7 NPC1 promoter luciferase reporter, 24 h; series mostly up to 9.22 µM
Screen size: about 320,000 compounds; about 7,600 (2.4%) were called active. Not shown: some 3% with an inconclusive outcome. Calls follow the shape of the dose curve; as a rule, active = well fitted activation curve with a large enough effect; inconclusive = small, poorly fitted or top-dose-only effect; inactive = no such curve, though single readings can be large or run the other way. The full list was thinned out, with actives kept by preference.
Your reply should match one of these outcome classes. true (1) (active), false (0) (inactive)

Recorded results for 4 compounds are shown here.
INSERT INTO results (compound, discrete_label) VALUES
  ('CC(C)(C)c1ccc(/C=C/C(=O)Nc2ncccn2)cc1', 'true (1)'),
  ('CC(C)Cn1c(N)c(C(=O)COC(=O)C2CCCN2C(=O)c2cccs2)c(=O)n(C)c1=O (centres undefined)', 'false (0)'),
  ('CCC(=O)NC(=S)Nc1ccc(NC(=O)c2ccco2)c(Cl)c1', 'false (0)'),
  ('O=C1COc2ccc(C(=O)CSc3ccc(Br)cc3)cc2N1', 'false (0)');

What did the test return for CC(C(=O)NC1CCCC1)N1CCN(S(=O)(=O)c2ccccc2Cl)CC1 (centres undefined) ?
false (0)

What did the test return for `O=C(NNC(=S)Nc1ccc(Br)cc1Cl)c1ccco1` ?
true (1)

What did the test return for `O=C(OCC(=O)N1CCCC1)c1ccc(Cl)nc1` ?
false (0)

What did the test return for `COc1cccc(-c2ccc3c(c2)S(=O)(=O)c2cccc(C(=O)O)c2C3=O)c1OC` ?
false (0)

What did the test return for `Cc1ccc(S(=O)(=O)N(C)C)cc1NC(=O)CN1c2cccc3cccc(c23)S1(=O)=O` ?
false (0)

What did the test return for `Cc1ccc(S(=O)(=O)N(C)C)cc1NC(=O)c1ccc(-n2cncn2)c([N+](=O)[O-])c1` ?
false (0)

What did the test return for `COc1ccc(S(=O)(=O)Nc2cc(C)on2)cc1NC(C)=O` ?
false (0)

What did the test return for `CN(Cc1ccccc1)S(=O)(=O)c1nnc(NC(=O)c2ccccc2F)s1` ?
false (0)

What did the test return for `Nc1ccn(CC(=O)N2CCN(c3ccccn3)CC2)c(=O)n1` ?
false (0)

What did the test return for `COc1cc(C(=O)N2C(=O)c3cccc(N)c3C2=O)cc(OC)c1OC` ?
false (0)

What did the test return for `Cc1cccc(Nc2nnc(SCC(=O)c3c(N)n(C4CC4)c(=O)[nH]c3=O)s2)c1C` ?
false (0)

What did the test return for `CC(C)(Oc1ccc(Cl)cc1)C(=O)OCC(=O)NCCc1ccc(S(N)(=O)=O)cc1` ?
false (0)

What did the test return for `O=C(CSc1nc2ccccc2[nH]1)c1cccs1` ?
true (1)

What did the test return for `O=C(CCNS(=O)(=O)c1ccccc1C(F)(F)F)Nc1ccncc1` ?
false (0)

What did the test return for `COc1ccc2c(c1OC)C(=O)N(c1ccc(O)cc1)C2` ?
true (1)

What did the test return for O=C(Nc1ccc(C2CC2(Cl)Cl)cc1)c1cccc([N+](=O)[O-])c1 (centres undefined) ?
true (1)

What did the test return for `O=C(NNC(=O)c1ccco1)Nc1ccccc1` ?
false (0)

What did the test return for `O=C(CSc1nc2ccccc2[nH]1)Nc1nc(-c2ccccc2)c(-c2ccccc2)o1` ?
false (0)

What did the test return for `COc1nc(N(C)C)nc(N2CC(=O)N(CCNS(=O)(=O)c3ccc(C)cc3)C2=N)n1` ?
false (0)

What did the test return for `O=C(NC(=S)NC1CCCCC1)c1ccc(Cl)cc1` ?
false (0)

What did the test return for `O=C(Cc1cccs1)Nc1ccc([N+](=O)[O-])cc1` ?
false (0)

What did the test return for `O=C(Nc1ccc(C(=O)N2CCCCC2)cc1)c1cccc([N+](=O)[O-])c1` ?
false (0)

###

Assay: qHTS Assay for NPC1 Promoter Activators; further: nearly all actives have a fitted effect of over 60% in size;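 on activation: reporter is driven by a mutant NPC1 promoter; % of control where 0% means no effect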
Settings: Huh7 NPC1 promoter luciferase reporter, 24 h; series mostly up to 9.22 µM
Text: NIH Chemical Genomics Center [NCGC] NIH Molecular Libraries Probe Production centers Network [MLPCN] […] The NPC1 promoter is cloned in front of the luciferase reporter gene, therefore NPC promoter activation results in luciferase expression. […] 7.#Read using the luminescence protocol on the ViewLux plate reader (Perkin Elmer).
About 7,600 (2.4%) of roughly 320,000 compounds were called active. Roughly 3% stayed inconclusive and do not appear here. The call rests on the fitted dose curve; in most records, active means well fitted activation curve with a large enough effect; inconclusive means small, poorly fitted or top-dose-only effect; inactive means no such curve, though single readings can be large or run the other way. This is one part of a sample in which actives are shown more often than they occur.
Your reply should match one of these outcome classes. active, inactive

INSERT INTO assay_data (compound, discrete_label) VALUES
  ('CCc1ccccc1NC(=O)[C@@H]1CCC(=O)N1C1OC(=O)c2c1ccc(OC)c2OC (stereo not given in full)', 'inactive'),
  ('Cc1ccc(S(=O)(=O)N(CC(=O)Nc2cccc([N+](=O)[O-])c2)Cc2ccc(Cl)cc2)cc1', 'inactive'),
  ('O=C(Nn1cnc2ccccc2c1=O)c1ccccc1', 'inactive');

What did the test return for `C=CCN1C(=O)c2ccc(C(=O)N3CCC(C(=O)OCC)CC3)cc2C1=O` ?
inactive

What did the test return for O=C(CCNC(=O)c1ccc(Cl)cc1)NC1CCCc2ccccc21 (stereo not given) ?
inactive

What did the test return for `COc1ccc(C(=O)NCc2ccc(C)cc2)cc1S(=O)(=O)N1CCCC1` ?
inactive

What did the test return for `O=C(CN1CCCSc2ccccc21)N1CCN(S(=O)(=O)c2cccc(F)c2)CC1` ?
inactive

What did the test return for `CC1CCN(C(=O)COC(=O)c2cc(=O)[nH]c3ccccc23)CC1` ?
active

What did the test return for `CC(C)c1cc(C(N)=O)c(NC(=O)c2cccc(COc3ccc(Br)cc3)c2)s1` ?
active

What did the test return for `CC(C)Oc1ccc(C(=O)NCC(=O)Nc2ccc3c(c2)CCC3)cc1` ?
inactive
